B1: LINE1-full (parent)
chain: UACGUAGGUGGUUUUCCCCUGAUAGUGCUAAGGGGGCCUGGAAGUUUGGACUGGGCAGAGCUCAACACAGCGUGGCAAAGUGGCUGUGGCUAGACUGCCUCUCUGGAUUCCUCGUCACUCAGCAGGGCAUCUCUGAGAGAAAUGCC

Variants of: B1
Assay: self-cleavage, relative activity (ratio to wild type); higher = more cleavage; in vitro, sequencing; the parent is a self-cleaving ribozyme
Assay Readout: self-cleavage
Answers are plain numbers.

{"Chain": "UACGUAGGUGGUUUUCCCCUGAUAGUGCUAAGGGGGCCUGGAAGUUUGGACUGGGCAGAGCUCAACACAGCGUGGCAAAGUGGCUGUGGCUAGGCUGCCUCUCUGGAUUCCUCGUCACUCGGCAGGGCAUCUCUGAGAGAAAUGCC [A94G A121G]", "self-cleavage": 0.22}
{"Chain": "UACGUAGGUGGUUUUCCCCUGAUAGUGCUAAGGGGGCCUGGAAGUUUGGACUGGGCAGAGCUCAACACGGCGUGGCAAAGUGGCUGUGGCUAGACUGCCUCUCUGGAUUCCUCGUCACUCAGCAGGGCAUCUCUGAGAGAAAAGCC [A69G U143A]", "self-cleavage": 0.31}

# per-item lookup of self-cleavage; items listed below
1. UACGUAGGUGGUUUUCCCCUGAUAGUGCUAAGGGGGCCUGGAAGUUUGGACUGAGCAGAGCUCAACACAGCGUGGCAAAGUGGCCGUGGCUAGACUGCCUCUCUGGAUUCCUCGUCACUCAGCAGGGCAUCUCUGAGAGAAAUGCC [G54A U85C]
2. UACGUAGGUGGUUUUCCCCUGAUAGUGCUAAGGGGGCCUGGAAGUUUGGACUGGGCAGAGCUCAACACAGCGUGGCAAAGUGGCUGUGGCUAGACUGCCACUCUGGAUUCCUCGUCACUCGGCAGGGCAUCUCUGAGAGAAAUGCC [U100A A121G]
3. UACGUAGGUGGUUUUCCCCUGAUAGUGCUAAGGGGGCCUGGAAGUUUGGACUGGGCCGAGCUCAACACAGCGUGGCAAAGGGGCUGUGGCUAGACUGCCUCUCUGGAUUCCUCGUCACUCAGCAGGGCAUCUCUGAGAGAAAUGCC [A57C U81G]
4. UACGUAGGUGGUUUUCCCCUGGUAGUGCUAAGGGGGCCUGGAAGUUUGGACUGGGCAGAGCUCAACACAGCGUGGCAAAGUGGCUGUGGCUAGUCUGCCUCUCUGGAUUCCUCGUCACUCAGCAGGGCAUCUCUGAGAGAAAUGCC [A22G A94U]
5. UACGUAGGUGGUUUUCCCCUGAUAGUGCUAAGGGGGCCUGGAAGUUUGGACUGGGCAGAACUCAACACAGCGUGGCAAAGAGGCUGUGGCUAGACUGCCUCUCUGGAUUCCUCGUCACUCAGCAGGGCAUCUCUGAGAGAAAUGCC [G60A U81A]
6. UACGUAGCUGGUUUUCCCCUGAUAGUGCUAAGGGGGCCUGGAAGUUUGGACUGGGCAGAGCUCAACACAGCGUGGCAAAGUGGCUGUGGCUAGACUGCCUCUCUGGAUUCCUCGUCACUCAGCAGGGCAUCUCUGAGAGAAAUGCC [G8C]
7. UACGUAGGUGGUUUUUCCCUGAUAGUGCUAAGGGGGCCUGGAAGUUUGGACUGGGCAGAGCUCAACACAGCGUGGCAAAGUGGCUGUGGCUAGACUGCCUCUCUGGAUUCCUCGUCACUCAGCAGGGCAUCUCCGAGAGAAAUGCC [C16U U134C]
8. UACGUAGGUGGUUUUCCCCUGGUAGUGCUAAGGGGGCCUGGAAGUUUGGACUGGGCAGAGCUCAACACAGCGUGGCAAAGUGGCUGUGGCUAGACUGCCUCUCUGGAUUCCUCGUCACUCAGCAGGGCAUCUCUGAGAAAAAUGCC [A22G G139A]

-- reply
0.03
1.58
0.16
0.37
0.02
1.66
2.6
1.82

# per-item lookup of self-cleavage; items listed below
1. UACGAAGGUGGUUUUCCCCUGAUAGUGCUAAGGGGGCCUGGAAGUUUGGACUGGGCAGAGCUCAACACAGCGUGGCAAAGUGGCUGUGGCUAGACUGCCUCUCUGGAUUCCUCGUCACUCAGCAGGGCAUCUCUGAGCGAAAUGCC [U5A A138C]
2. UACGUAGGUGGUUUUCCCCUGAUAGUGCUAAGGGGGCCUGGAAGUUUGGACAGGGCAGAGCUCAACACAGCGUGGCAAAGUGGCUGUGGCUAGACUGCCACUCUGGAUUCCUCGUCACUCAGCAGGGCAUCUCUGAGAGAAAUGCC [U52A U100A]
3. UACGUAGGUGGUUUUCCCCUGAUAGUGCUAAGGGGGCCUGGAAGUUUGGACUGGGCAGAGCUCAACACAGCGUGGCAAAGUGGCUGUGGCUAGACUGCCUCUCUGGAUUCCACGACACUCAGCAGGGCAUCUCUGAGAGAAAUGCC [U112A U115A]
4. UACGUAGGUGGUUUUCCCCUGAUAGUGCUAAGGGGGCCUGGAAGAUUGGACUGGGCGGAGCUCAACACAGCGUGGCAAAGUGGCUGUGGCUAGACUGCCUCUCUGGAUUCCUCGUCACUCAGCAGGGCAUCUCUGAGAGAAAUGCC [U45A A57G]
5. UACGUAGGUGGUUUUCCCCUGAUAGUGCUAAGGGGGCCUGGAAGUUUGGACUGGGCAGAGCUCAACACUGCGUGGCAAAGUGGCUGUGGCUAGACUGCCUCUCUGGACUCCUCGUCACUCAGCAGGGCAUCUCUGAGAGAAAUGCC [A69U U108C]
6. UACGUAGGUGGUUUUCCCCUGAUAGUGCUAAGGGGGCCUGGAAGUUUGGACUGGGCAUAGCUCAACACAGCGUGGCAAAGUGGCUGUGGCUAGACUGCCUCUCUGGAUUCCUCGUCGCUCAGCAGGGCAUCUCUGAGAGAAAUGCC [G58U A117G]
7. UACGUAGGUGGUUUUCCCCUGAUAGUGCUAAGGGGGCCUGGAAGUUUGGACUGGGCAGAGCUCAACACAGCGUGGCAAAGUGGCUGUGGCUAGACUGCCUCUCUGGAUUCCUCGCCACUCAGCUGGGCAUCUCUGAGAGAAAUGCC [U115C A124U]

-- reply
1: 0.98; 2: 1.29; 3: 1.4; 4: 1.01; 5: 0.06; 6: 0.01; 7: 1.69
